Every entry's value here was drawn from BindingDB's records for doi:10.1021/jm980560x.

test.name: Displacement of [3H]vesamicol from Vesicular Acetylcholine Transporter (VAChT)
Exam item: assign rule met to entries whose Ki is below 5 nM and rule not met to entries at or above 5 nM. Note that a value of exactly 5 nM receives rule not met.

Does this compound meet the criterion Ki < 5 nM? "O[C@@H]1C[C@H]2CCCN(Cc3ccc(F)cc3)[C@@H]2C[C@H]1N1CCC(c2ccccc2)CC1" rule met

Okay, and "O[C@@H]1CCNC[C@H]1N1CCC(c2ccccc2)CC1" ? rule not met

Okay, and "O[C@@H]1C[C@@H]2[C@H](CCCN2Cc2cccc(I)c2)C[C@H]1N1CCC(c2ccccc2)CC1" ? rule not met

Okay, and "O[C@@H]1C[C@H]2CCCN(C/C=C/I)[C@@H]2C[C@H]1N1CCC(c2ccccc2)CC1" ? rule met

Okay, and "O[C@@H]1C[C@@H]2[C@H](CCCN2Cc2ccc(F)cc2)C[C@H]1N1CCC(c2ccccc2)CC1" ? rule not met

Okay, and "O[C@@H]1C[C@H]2CCCN(Cc3cccc(I)c3)[C@@H]2C[C@H]1N1CCC(c2ccccc2)CC1" ? rule met

Okay, and "O=C(c1ccccc1)N1CCC[C@@H]2C[C@@H](O)[C@H](N3CCC(c4ccccc4)CC3)C[C@H]21" ? rule met
